Biological target: T1, human RANKL protein (human, UniProt O14788 140-317, limits assumed)
T1 sequence (looked up): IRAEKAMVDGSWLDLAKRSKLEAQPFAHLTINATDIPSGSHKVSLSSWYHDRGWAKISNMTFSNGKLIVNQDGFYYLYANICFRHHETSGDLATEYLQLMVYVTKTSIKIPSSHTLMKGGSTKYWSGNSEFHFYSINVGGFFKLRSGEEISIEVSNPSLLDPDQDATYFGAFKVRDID
Experiment: surface plasmon resonance
MEASUREMENT TYPE: koff (s⁻¹)
# number only, unit s⁻¹ dropped from output

{"BINDER": "clone 91 rabbit anti-RANKL antibody (antibody, V domains shown) VH: QSLEESGGRLVKPDETLTLTCTVSGSSLYNYEINWVRQAPGKGLEWIGYIDVGSGTWYASWAKGRFTISKTSTTVDLKITSPTTEDTATYFCTRKYNPMDLWGPGTLVTVSS VL: DMTQTPASVEVAVGGTVTIKCQASQNIGSNLAWYQQKPGQPPKLLIYSTSTVASGVPSRFKGSGFGTQFTLTISGVQCDDAATYYCQQGYSAGNVNNPFGGGTEVVVK", "REPORTED MEASUREMENT": 0.000273}

Qu. Param item = clone 23 rabbit anti-RANKL antibody (antibody, V domains shown, also called RabMAb 23; parent 23 rabbit antibody) VH: QEQLKESGGGLVTPGGTLTLTCTASGFSLSSDGMSWVRQAPGKGLEWIGYIYSGSSPYYANWAKGRFTISKTSSTTVDLKMTSLTTEDTATYFCARHGSGGGWYLDIWGPGTLVTVSS VL: AYDMIQTPASVEVAVGGTVTINCQASQTIGTNLAWYQQKPGQRPKLLIYAASTLPSGVSSRFKGSGSGTQFTLTISDVECSDAATYYCQQAYSVGNVDNAFGGGTEVVVK ; retrieve measured koff.
Ans. 0.000154
